Endpoint: EC50. System: SRSF protein kinase 3 (Homo sapiens, UniProt Q9UPE1). Items follow.
Sequence (Q9UPE1 whole entry): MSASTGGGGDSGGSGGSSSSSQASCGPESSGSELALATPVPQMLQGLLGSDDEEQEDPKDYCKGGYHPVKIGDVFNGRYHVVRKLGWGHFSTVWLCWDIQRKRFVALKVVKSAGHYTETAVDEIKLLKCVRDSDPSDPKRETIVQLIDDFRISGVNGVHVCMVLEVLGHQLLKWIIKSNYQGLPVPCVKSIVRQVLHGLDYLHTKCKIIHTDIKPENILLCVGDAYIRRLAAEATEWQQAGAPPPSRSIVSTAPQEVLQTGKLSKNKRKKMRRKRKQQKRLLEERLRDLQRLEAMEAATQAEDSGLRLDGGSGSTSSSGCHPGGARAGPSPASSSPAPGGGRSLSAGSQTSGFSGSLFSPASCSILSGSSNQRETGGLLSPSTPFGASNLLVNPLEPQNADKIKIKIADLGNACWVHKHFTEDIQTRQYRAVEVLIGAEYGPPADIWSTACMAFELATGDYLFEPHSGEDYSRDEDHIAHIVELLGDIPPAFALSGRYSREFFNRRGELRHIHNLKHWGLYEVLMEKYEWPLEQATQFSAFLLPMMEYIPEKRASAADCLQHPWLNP

O=C(Nc1cc(C(F)(F)F)ccc1N1CCCCC1)c1ccncc1: 0.398 µM

Please report EC50 for the following compound: O=C(Nc1cc(C(F)(F)F)ccc1N1CCN(Cc2ccccn2)CC1)c1ccc(-c2ccncc2)o1
6.15 µM

====

target: Focal adhesion kinase 1 (Homo sapiens, UniProt Q05397)
Sequence (Q05397 whole entry): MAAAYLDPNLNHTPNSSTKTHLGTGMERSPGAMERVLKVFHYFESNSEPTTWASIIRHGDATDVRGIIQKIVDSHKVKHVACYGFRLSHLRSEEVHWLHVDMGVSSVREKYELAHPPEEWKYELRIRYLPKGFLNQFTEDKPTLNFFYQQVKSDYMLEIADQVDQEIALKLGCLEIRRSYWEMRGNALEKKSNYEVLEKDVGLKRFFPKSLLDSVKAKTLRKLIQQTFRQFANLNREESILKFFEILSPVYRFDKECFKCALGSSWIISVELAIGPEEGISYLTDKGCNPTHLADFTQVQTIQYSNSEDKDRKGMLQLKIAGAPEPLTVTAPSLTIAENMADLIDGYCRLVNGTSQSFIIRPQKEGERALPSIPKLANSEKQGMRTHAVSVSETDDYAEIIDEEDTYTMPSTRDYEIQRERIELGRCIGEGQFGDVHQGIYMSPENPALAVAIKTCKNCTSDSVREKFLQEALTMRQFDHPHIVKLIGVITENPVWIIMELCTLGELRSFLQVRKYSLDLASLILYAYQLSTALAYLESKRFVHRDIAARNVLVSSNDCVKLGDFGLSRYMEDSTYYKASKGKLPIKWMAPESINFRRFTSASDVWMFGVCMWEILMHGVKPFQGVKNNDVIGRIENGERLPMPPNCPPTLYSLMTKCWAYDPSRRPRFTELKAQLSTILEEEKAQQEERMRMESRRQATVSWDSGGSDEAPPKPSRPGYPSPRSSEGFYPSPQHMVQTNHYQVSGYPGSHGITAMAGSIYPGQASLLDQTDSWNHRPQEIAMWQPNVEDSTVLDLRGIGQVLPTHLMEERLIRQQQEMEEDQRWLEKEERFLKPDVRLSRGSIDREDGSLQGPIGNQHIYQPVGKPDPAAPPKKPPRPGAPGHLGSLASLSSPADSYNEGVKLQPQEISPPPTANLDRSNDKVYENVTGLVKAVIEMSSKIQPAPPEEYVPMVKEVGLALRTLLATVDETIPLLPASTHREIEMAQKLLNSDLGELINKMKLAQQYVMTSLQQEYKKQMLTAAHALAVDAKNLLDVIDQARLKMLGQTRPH
experimental-readout: EC50 (µM)
Your answer is read as µM, so omit the unit and give the number.

c1ccc(-c2nn[nH]n2)nc1: 253

Here is the next item to consider.
Look up EC50 of c1ccc(-c2nc3ccccc3[nH]2)nc1 and report it.
103

====

biological target: Dual specificity protein kinase CLK2 (Homo sapiens); assay: Inhibition of human CLK2 using myelin basic protein as substrate in presence of [gamma-33p]-ATP by radiometric hotspot kinase
Sequence (P49760 whole entry): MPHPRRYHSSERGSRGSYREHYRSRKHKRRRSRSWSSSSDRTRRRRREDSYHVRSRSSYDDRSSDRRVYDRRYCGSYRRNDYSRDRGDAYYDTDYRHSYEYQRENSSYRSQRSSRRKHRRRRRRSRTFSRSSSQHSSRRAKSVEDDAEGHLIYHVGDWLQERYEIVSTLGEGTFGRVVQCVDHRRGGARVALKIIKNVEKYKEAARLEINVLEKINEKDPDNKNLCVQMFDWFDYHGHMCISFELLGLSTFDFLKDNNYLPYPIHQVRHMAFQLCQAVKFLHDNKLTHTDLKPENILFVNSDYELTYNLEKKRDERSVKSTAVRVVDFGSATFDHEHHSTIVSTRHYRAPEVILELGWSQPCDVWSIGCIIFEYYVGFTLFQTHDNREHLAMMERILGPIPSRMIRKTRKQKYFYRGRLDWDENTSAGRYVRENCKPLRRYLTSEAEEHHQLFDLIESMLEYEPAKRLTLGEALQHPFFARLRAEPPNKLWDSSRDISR
Reported IC50 values follow for various compounds
Kindly provide the numeric value in µM only, without the unit symbol.

O=C(Nc1cc(C(F)(F)F)ccc1N1CCN(Cc2ccccn2)CC1)c1ccc(-c2ccncc2)o1: 5.7

Next compound, please.
Look up and state reported IC50 for CCc1cc2c(cc1-c1cccc(S(=O)(=O)F)c1)C(C)(C)c1[nH]c3cc(C#N)ccc3c1C2=O
0.92

====

Parameter pIC50, tested on Dual specificity protein kinase CLK3 (Homo sapiens, UniProt P49761), listed per item.
Sequence (P49761 whole entry): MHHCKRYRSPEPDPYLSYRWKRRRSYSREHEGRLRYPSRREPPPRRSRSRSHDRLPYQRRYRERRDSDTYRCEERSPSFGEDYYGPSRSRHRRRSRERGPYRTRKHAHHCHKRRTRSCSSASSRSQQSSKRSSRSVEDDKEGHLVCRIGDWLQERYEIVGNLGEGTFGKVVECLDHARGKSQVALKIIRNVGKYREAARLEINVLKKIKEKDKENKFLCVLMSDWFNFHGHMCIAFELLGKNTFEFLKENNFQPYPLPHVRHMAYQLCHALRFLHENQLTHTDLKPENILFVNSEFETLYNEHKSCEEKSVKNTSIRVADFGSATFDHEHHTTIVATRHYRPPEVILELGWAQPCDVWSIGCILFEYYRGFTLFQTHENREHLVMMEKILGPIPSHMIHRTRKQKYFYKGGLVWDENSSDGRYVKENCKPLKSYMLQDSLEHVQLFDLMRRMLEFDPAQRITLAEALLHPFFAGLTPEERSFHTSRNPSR
pIC50: −log10 of the molar value.

CCc1cc2c(cc1-c1cccc(S(=O)(=O)F)c1)C(C)(C)c1[nH]c3cc(C#N)ccc3c1C2=O: < 4.52

Proceed to the following item.
Annotate the compound CN(c1ncccc1CNc1ccnc(-c2nc3c(F)c(Cl)ccc3[nH]2)n1)S(C)(=O)=O with its measured pIC50.
< 5.00

All figures here come from ChEMBL document CHEMBL5321194.
